Source: ChEMBL document CHEMBL1151968

# Tested on: RAW264.7
# ASSAY NOTES: Antiinflammatory activity in mouse RAW264.7 cells assessed as reduction of LPS-induced iNOS protein level at 10 uM by immunoblot analysis relative to control
# Format: functional
# Parameters: scale not given: the % may be the effect or the level left
Friendly reminder: Activity below 20% is YES, at or above is NO.

MOLECULE	GROUP LABEL
O=C(/C=C/c1ccc(O)c(O)c1)OCCc1ccccc1 [CAFFEIC ACID PHENETHYL ESTER]	YES
CCCCCCCCCCCCCCCCCCC[C@@H](O)C(=O)N[C@@H](CO[C@@H]1O[C@H](CO)[C@@H](O)[C@H](O)[C@H]1O)[C@H](O)/C=C/CC/C=C(\C)CCCCCCCCC [SARCOEHRENOSIDE B]	NO
CCCCCCCCCCCCC/C=C/[C@@H](O)[C@H](CO)NC(C)=O	NO
CCCCCCC/C=C/C(C)=C/CC/C=C/[C@@H](O)[C@H](CO[C@H]1O[C@H](CO)[C@@H](O)[C@H](O)[C@H]1O)NC(=O)[C@H](O)/C=C/CCCCCCCCCCCCCC [SARCOEHRENOSIDE A]	NO
CCCCCCCCCCCCCCCCCC[C@@H](O)C(=O)N[C@@H](CO[C@@H]1O[C@H](CO)[C@@H](O)[C@H](O)[C@H]1O)[C@H](O)/C=C/CC/C=C(\C)CCCCCCCCC	NO
